readout name: Kd (nM)
Reply with just the number (in nM).

Give Kd (carbonic anhydrase (Zn-CA) (Bos taurus, UniProt P00921)) of the following molecule: COc1cc(NS(=O)(=O)c2ccc(C)cc2)c2ncccc2c1 [TSQ]
155

###

- target or system: UniProt:P00330
- Sequence (P00330 2-348): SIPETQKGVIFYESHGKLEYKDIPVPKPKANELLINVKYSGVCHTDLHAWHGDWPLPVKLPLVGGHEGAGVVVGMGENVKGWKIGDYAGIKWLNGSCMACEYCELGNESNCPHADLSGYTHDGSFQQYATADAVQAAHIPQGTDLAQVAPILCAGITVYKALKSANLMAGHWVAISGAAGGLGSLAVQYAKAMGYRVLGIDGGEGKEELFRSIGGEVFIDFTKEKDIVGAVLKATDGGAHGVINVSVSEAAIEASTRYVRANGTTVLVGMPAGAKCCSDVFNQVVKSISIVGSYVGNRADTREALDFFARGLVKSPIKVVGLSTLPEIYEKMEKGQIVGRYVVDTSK
- assay overview: fluorescence titration
- Format: binding
readout name: Kd (µM)
Reply with just the number (in µM).

Requested read-out: Kd. Entry: `COc1cc(NS(=O)(=O)c2ccc(C)cc2)c2ncccc2c1`
48.6
